Molecular target: E3 ubiquitin-protein ligase SIAH1 (Homo sapiens)
Assay: blockers of Siah-1 interaction with plectin peptide – biochemical, fluorescence polarization, rhodamine-plectin, uHTS, primary screen (AID 1817)
Details: Siah-1 / rhodamine-plectin peptide fluorescence polarization
The source made the active and inactive calls.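 How the source made its calls: active means displacement of at least 50% at 20 µM, with a fluorescence ratio check between 0.3 and a set limit; inactive means the rest.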
// classify into active, inactive

Solved cases (10 shown):
>>> print(df.to_string())
                                   compound       cat
0   O=C(Nc1ccc(Oc2ccsc2C(=O)O)cc1)c1ccccc1F  inactive
1  N#CC1C=Cc2ccccc2N1C(=O)c1ccccc1 (stereo unspecified)  inactive
2        COc1ccc(CNC(=S)Nc2cc(OC)ccc2OC)cc1  inactive
3  COC(=O)c1c(C(=O)OC)c2cccc3cc(-c4ccccc4)c4ccc1c4n32  inactive
4  COc1ccc(CCNC(=O)CCC(=O)N2CCOc3ccc(C)cc32)cc1OC  inactive
5  COc1cc(/C=C2/SC(=S)N(Cc3ccccc3)C2=O)cc(Cl)c1O  inactive
6  COc1ccc(C(C(=O)NCc2ccccc2)N(Cc2ccco2)C(=O)c2cnccn2)cc1 (stereo unspecified)  inactive
7  O=C(O)CCCNc1cc(N2CCN(C(=O)c3ccco3)CC2)c2noc3c2c1C(=O)c1ccccc1-3    active
8  Nc1c(C(=O)NCc2ccco2)c2nc3ccccc3nc2n1CCc1ccccc1  inactive
9  CC(=O)c1ccc(S(=O)(=O)Nc2ccc(-c3ccc4nnc(C)n4n3)cc2)cc1  inactive

Now consider the entry below.
Please share the test call associated with "CCOC(=O)c1c(C)[nH]c2c1-c1ccccc1C(=O)C2=O" . inactive

====

Biological target: E3 ubiquitin-protein ligase SIAH1 (Homo sapiens) (UniProt Q8IUQ4)
Sequence (Q8IUQ4 whole entry, looked up): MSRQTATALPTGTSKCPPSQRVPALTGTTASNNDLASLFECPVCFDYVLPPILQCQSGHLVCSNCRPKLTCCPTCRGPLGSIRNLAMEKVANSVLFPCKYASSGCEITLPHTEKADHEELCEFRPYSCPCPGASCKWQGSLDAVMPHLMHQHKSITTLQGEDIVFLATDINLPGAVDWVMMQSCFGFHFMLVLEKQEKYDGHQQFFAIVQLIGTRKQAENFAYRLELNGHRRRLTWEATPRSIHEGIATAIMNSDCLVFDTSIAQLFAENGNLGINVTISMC
Experiment: blockers of Siah-1 interaction with plectin peptide – biochemical, fluorescence polarization, rhodamine-plectin, uHTS, primary screen (AID 1817)
Conditions: Siah-1 / rhodamine-plectin peptide fluorescence polarization
Active and inactive are the calls of the source.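 Rule for the calls: active = displacement of at least 50% at 20 µM, with a fluorescence ratio check between 0.3 and a set limit; inactive = the rest.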
Give your call using only these classes: active, inactive

The examples below pair each entry with its known result.
>>> df
                                   compound                             target_entity       cat
0  COc1cc(CNc2ccc(O)cc2)cc(Br)c1OCc1ccccc1F  E3 ubiquitin-protein ligase SIAH1 (Homo sapiens) (UniProt Q8IUQ4)  inactive
1  CCCCn1c(NS(=O)(=O)c2ccccc2)c(S(=O)(=O)c2ccc(C)cc2)c2nc3ccccc3nc21  E3 ubiquitin-protein ligase SIAH1 (Homo sapiens) (UniProt Q8IUQ4)  inactive
2  O=C(Nc1ccc(Cl)cc1)c1ccc(S(=O)(=O)N2CCOCC2)cc1  E3 ubiquitin-protein ligase SIAH1 (Homo sapiens) (UniProt Q8IUQ4)  inactive

Could you kindly confirm the outcome this assay logged for "Nc1c(C(=O)NCc2ccco2)c2nc3ccccc3nc2n1Cc1ccccc1" ? inactive

Field: outcome | Entry: "O=C(Nc1ccc(Cl)cc1)OCc1cn(-c2ccccc2)nn1" inactive

In this assay, the call recorded for "Cc1ccccc1-c1nc2c3ccccc3nc(=S)n2[nH]1" was what? inactive

Hi, do you know how "O=C(/C=C/c1ccco1)OCc1nnc(-c2ccccc2)o1" came out in this test? inactive

Recorded test outcome, item "CN(C)c1cccc2c(C=C(C#N)C#N)ccc(N(C)C)c12" inactive

For COc1cccc(CCC(=O)N(C)C2CCCN(Cc3ccccc3F)C2)c1 (configuration not stated) , which call appears in the assay record? inactive

What did this assay record as the result for "CC1CCN(S(=O)(=O)c2ccc3c(c2)c(=O)c(C(=O)NCc2ccccc2Cl)cn3C)CC1" ? inactive

What call does the record list for COC(=O)C1CC(=O)N(c2ccc(OCc3ccccc3Cl)cc2)C1 (configuration not stated) ? inactive

Test call, this compound: "CCn1c(O)c(C=Nc2ccc(N3CCOCC3)cc2)c(=O)n(CC)c1=S" inactive

Status in this test for "S=c1[nH]nc(Cc2cccc3ccccc23)n1-c1ccccc1" ? inactive

What did the test return for COC/C=C/C1=CC2=CC(=O)C(C)(OC(=O)c3ccco3)C(=O)C2=CO1 (configuration not stated) ? inactive

Check the results log: what was the call for "CCN(CC)c1ccc(C=N/C(C#N)=C(\N)C#N)cc1" ? inactive

State the result this test recorded for "O=C(Nc1cccc(Oc2ccc(C(=O)O)c(C(=O)O)c2)c1)c1ccc(-c2ccccc2)cc1" . active

What did the test return for O=C(CC1Nc2cccc3cccc(c23)NC1=O)Nc1ccccc1 (configuration not stated) ? inactive

Test call, this compound: "O=C(Cn1cnc2scc(-c3ccccc3)c2c1=O)NCc1ccco1" inactive

====

Molecular target: E3 ubiquitin-protein ligase SIAH1 (Homo sapiens) (UniProt Q8IUQ4)
Assay: blockers of Siah-1 interaction with plectin peptide – biochemical, fluorescence polarization, rhodamine-plectin, uHTS, primary screen (AID 1817)
Conditions: Siah-1 / rhodamine-plectin peptide fluorescence polarization
Active and inactive are the calls of the source.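 Rule for the calls: active = displacement of at least 50% at 20 µM, with a fluorescence ratio check between 0.3 and a set limit; inactive = the rest.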
Tick one outcome: Yes = active, No = inactive

Recorded results for 2 compounds are shown here.
                            compound                             target_entity  cat
0  O=C1CCCC(O)=C1N=Nc1ccc(C(=O)O)cc1  E3 ubiquitin-protein ligase SIAH1 (Homo sapiens) (UniProt Q8IUQ4)   No
1               CCNc1ccc(C(=O)O)cc1N  E3 ubiquitin-protein ligase SIAH1 (Homo sapiens) (UniProt Q8IUQ4)   No

What is the recorded call for this compound in the test? "Cc1cc(C)n(-c2ccc(Cl)c(C(=O)Nc3cc(C(F)(F)F)ccc3Cl)n2)n1" No

# fetch the recorded call for "COc1cc(/C=C(\C#N)c2nc3ccccc3[nH]2)ccc1OC(=O)c1ccco1" here No

Please let me know the test result on file for COC(=O)C1C=C2c3cccc4[nH]cc(c34)CC2N(C)C1 (stereo unspecified) . No

How did this test come out for "CC1=C(C#N)c2nc(N)c(C#N)c(C)c2/C1=C\c1ccc(-c2ccccc2C(=O)O)o1" ? Yes

Hi, do you know how "O=C(CCN1CCN(Cc2ccccc2)CC1)Nc1cccc(Cl)c1" came out in this test? No

I'd appreciate the recorded outcome for "Cc1ccc(OCCCN2CCOCC2)cc1" from this test. No

====

Target: E3 ubiquitin-protein ligase SIAH1 (Homo sapiens) (UniProt Q8IUQ4)
Assay: blockers of Siah-1 interaction with plectin peptide – biochemical, fluorescence polarization, rhodamine-plectin, uHTS, primary screen (AID 1817)
Settings: Siah-1 / rhodamine-plectin peptide fluorescence polarization
Activity calls are given as the source filed them.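 The calls were made as follows: active = displacement of at least 50% at 20 µM, with a fluorescence ratio check between 0.3 and a set limit; inactive = the rest.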
Pick one and only one: 1.0 = active, 0.0 = inactive

Worked cases, answers included:
In [3]: df
Out[3]:
                        structure_as_smiles  cat
0  O=c1[nH]n(-c2ccc([N+](=O)[O-])cc2)c(=O)c2ccccc12  1.0
1  O=C(O)CCN1C(=O)/C(=C/c2cn(-c3ccccc3)nc2-c2cccs2)SC1=S  0.0
2        N#C/C(=C\c1c(F)cccc1Cl)C(=O)NC1CC1  0.0
3   O=C(Nc1nc(-c2cc3ccccc3oc2=O)cs1)c1ccco1  0.0

Note: attention shifts to another entry.
Dear all, I need the recorded test outcome for "Cc1c(C(=O)O)sc2nc(CSc3ncc(C(F)(F)F)cc3Cl)[nH]c(=O)c12" , thank you. 0.0

====

Biological target: E3 ubiquitin-protein ligase SIAH1 (Homo sapiens) (UniProt Q8IUQ4)
Assay: blockers of Siah-1 interaction with plectin peptide – biochemical, fluorescence polarization, rhodamine-plectin, uHTS, primary screen (AID 1817)
Details: Siah-1 / rhodamine-plectin peptide fluorescence polarization
The source made the active and inactive calls.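 How the source made its calls: active means displacement of at least 50% at 20 µM, with a fluorescence ratio check between 0.3 and a set limit; inactive means the rest.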
Returns: one label drawn from active, inactive

Would you please look over these solved cases?
>>> df
                                   compound       cat
0  COCCn1nnnc1C(c1cc2ccc(OC)cc2[nH]c1=O)N1CCc2ccccc2C1 (centres undefined)  inactive
1  O=S(=O)(Nc1c(S(=O)(=O)c2ccccc2)c2nc3ccccc3nc2n1C1CCCCC1)c1ccccc1  inactive
2  O=S(=O)(O)c1cc(O)c2c(O)c(N=Nc3cc(Cl)ccc3O)c(S(=O)(=O)O)cc2c1    active
3  CCCCn1c(NC(=O)c2ccco2)c(S(=O)(=O)c2ccc(C)cc2)c2nc3ccccc3nc21  inactive
4  CCCCn1c(NS(=O)(=O)c2ccccc2)c(C(=O)OCC)c2nc3ccccc3nc21  inactive
5  O=C(CSc1ccc(Br)c2cccc(Cl)c12)Nc1ccc(S(=O)(=O)Nc2nccs2)cc1  inactive
6        COc1ccc(-c2cnnn2-c2ccc(N)cc2)cc1OC  inactive
7  CC1CCN(C(=O)C2CCC(C)(C(=O)O)C2(C)C)CC1 (centres undefined)  inactive

Shift focus to the following entry.
Called result for "CC(C)(C)c1cc(-c2csc(Nc3ccccc3)[n+]2Cc2ccc(C(=O)O)cc2)cc(C(C)(C)C)c1O" inactive

====

Target: E3 ubiquitin-protein ligase SIAH1 (Homo sapiens)
Assay: blockers of Siah-1 interaction with plectin peptide – biochemical, fluorescence polarization, rhodamine-plectin, uHTS, primary screen (AID 1817)
Conditions: Siah-1 / rhodamine-plectin peptide fluorescence polarization
Activity calls are given as the source filed them.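 How the source made its calls: active means displacement of at least 50% at 20 µM, with a fluorescence ratio check between 0.3 and a set limit; inactive means the rest.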
QUANTITY KIND: IC50

See these solved cases before continuing.
                                   molecule  quantity_kind      observed_result
0  CCC(C)[C@H](NC(=O)N1CCn2c1nc1ccccc12)C(=O)NCCc1ccc(OC)c(OC)c1 (some centres undefined)           IC50  > 200 µM (inactive)
1  COC(=O)c1ccc2c(c1)C(C)(C)C(/C=C/c1ccccc1O)=[N+]2C           IC50  > 200 µM (inactive)
2  CC(=O)Nc1ccc(N=Cc2c(O)c(C(=O)Nc3ccccc3)cc3ccccc23)cc1           IC50              24.9 µM
3  O=C(Nc1ccccc1N1CCCCC1)c1ccc(-c2cccc(Cl)c2)o1           IC50  > 200 µM (inactive)
4  COCCCn1c(N)c(C(=O)NCc2ccco2)c2nc3ccccc3nc21           IC50  > 200 µM (inactive)
5  O=C(CCn1ccc2ccccc21)NC1CCCc2ccccc21 (centres undefined)           IC50  > 200 µM (inactive)
6  CCN(CC)CCOC(=O)c1ccc(N/C=C(/C#N)c2nc(-c3cc4ccccc4oc3=O)cs2)cc1           IC50              11.2 µM
7  C=CCn1c(NS(=O)(=O)c2ccccc2)c(S(=O)(=O)c2ccc(C)cc2)c2nc3ccccc3nc21           IC50  > 200 µM (inactive)
8  CCCCN(Cc1cc2cc(OC)ccc2[nH]c1=O)S(=O)(=O)c1ccc(C)cc1           IC50  > 200 µM (inactive)
9       CCCCNc1nnc(Cc2ccc(Cl)cc2)c(=O)[nH]1           IC50  > 200 µM (inactive)

Query IC50 on E3 ubiquitin-protein ligase SIAH1 (Homo sapiens) for "Cc1cc2cc(CNC(=O)c3ccc(S(=O)(=O)N4CCCCC4)cc3)ccc2n1C" > 200 µM (inactive)

What value of IC50 on E3 ubiquitin-protein ligase SIAH1 (Homo sapiens) does "O=C(Nc1ccc(S(=O)(=O)N2CCOCC2)cc1)c1ccc(=O)[nH]c1" have? 20.5 µM
